# target-of-assay: r-N35S rURAT1 point mutant (Rattus norvegicus, UniProt Q3ZAV1, N35S)
# Construct: expressed in transfected cells; host or cells: HEK-293T
# Sequence (Q3ZAV1 whole entry N35S): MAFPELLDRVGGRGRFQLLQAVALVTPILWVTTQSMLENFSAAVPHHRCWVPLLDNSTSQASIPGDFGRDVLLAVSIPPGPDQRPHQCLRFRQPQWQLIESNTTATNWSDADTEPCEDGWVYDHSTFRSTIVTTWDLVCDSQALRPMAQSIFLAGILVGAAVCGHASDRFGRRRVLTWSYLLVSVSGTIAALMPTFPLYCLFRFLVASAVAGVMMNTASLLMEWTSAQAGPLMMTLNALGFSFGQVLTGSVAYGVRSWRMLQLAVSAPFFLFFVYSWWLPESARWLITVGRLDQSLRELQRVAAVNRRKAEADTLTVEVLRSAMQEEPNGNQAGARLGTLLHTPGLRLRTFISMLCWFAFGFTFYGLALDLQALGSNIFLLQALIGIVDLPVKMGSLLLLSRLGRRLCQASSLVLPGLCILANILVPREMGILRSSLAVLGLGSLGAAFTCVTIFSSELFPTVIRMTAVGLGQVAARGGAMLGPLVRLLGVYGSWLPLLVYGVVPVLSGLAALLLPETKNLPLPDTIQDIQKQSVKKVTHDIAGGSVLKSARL
# measurement-description: URAT1 uric acid transport activity assay
# Type: cell-based
property-measured: pIC50
One number for each entry, as −log10 of the molar value.

Enquiry: Jot down pIC50 (r-N35S rURAT1 point mutant (Rattus norvegicus, UniProt Q3ZAV1, N35S)) of `CCc1oc2ccccc2c1C(=O)c1cc(Br)c(O)c(Br)c1` .
Return: 4.77

====

Please respond with reported pIC50 for every item in the list.
# target-of-assay: r-N35S/Y365F rURAT1 double point mutant (Rattus norvegicus, UniProt Q3ZAV1, N35S/Y365F)
# Construct: expressed in transfected cells; host or cells: HEK-293T
# Sequence (Q3ZAV1 whole entry N35S/Y365F): as the sequence (Q3ZAV1 whole entry N35S) above, with Y365F counted along it
# measurement-description: URAT1 uric acid transport activity assay
# Type: cell-based
# test-parameters: r-N35S/Y365F; MES pH 5.5; 100 μM 14C-uric acid; read-out: IC50 (uric acid transport)
# Description: hURAT1 (GenBank BC053348.1) and rURAT1 (NCBI NM_001034943.1) genes were purchased from Origene Technologies, Inc. and subcloned into pCMV6/neo using NotI, creating pCMV6/neo-hURAT1 and pCMV6/neo-rURAT1. […] Compounds were serially diluted into assay buffer and added to the cells for 5 minutes prior to addition of radiolabelled uric acid substrate. […] Each treatment was measured in triplicate. […]
One number for each entry, as −log10 of the molar value.

molecule | target-of-assay | readout-value
O=C(O)CSc1nnc(Br)n1-c1ccc(C2CC2)c2ccccc12 [lesinurad] | r-N35S/Y365F rURAT1 double point mutant (Rattus norvegicus, UniProt Q3ZAV1, N35S/Y365F) | 5.80

Please examine the following record next.
Enquiry: Using known records, supply pIC50 for O=c1[nH]c(=O)c2[nH]c(=O)[nH]c2[nH]1 [uric acid]
Return: 3.32
